src = BindingDB's records for doi:10.1016/j.bmcl.2012.07.045

The reader will find reported pIC50 values listed item by item below.
targetOfAssay: Tyrosine-protein kinase SYK (Homo sapiens) (UniProt P43405)
testSummary: Inhibition of human recombinant full-length Syk using poly-GT as substrate after 40 mins by radioactive filtration assay
pIC50: −log10 of the molar value.
measureName: pIC50

                                    compound  measurename  measuredvalue
 0  c1cc(-c2cccc(Nc3cnccn3)n2)cc(N2CCNCC2)c1        pIC50           7.37
 1  O=C(Nc1cc(Nc2cnccn2)nc(-c2ccnc(N3CCNCC3)c2)c1)c1ccc(C(=O)O)nc1        pIC50           8.00
 2       Cc1ccnc(Nc2cccc(-c3cccc(CN)c3)n2)c1        pIC50           5.78
 3  FC(F)(F)c1ccnc(Nc2cccc(-c3ccnc(N4CCNCC4)c3)n2)c1        pIC50           8.74
 4  c1cc(Nc2cnccn2)nc(-c2ccnc(N3CCNCC3)c2)c1        pIC50           7.21
 5  O=C(Cc1cccnc1)Nc1cc(Nc2cnccn2)nc(-c2ccnc(N3CCNCC3)c2)c1        pIC50           8.40
 6  O=C(Nc1cc(Nc2cnccn2)nc(-c2ccnc(N3CCNCC3)c2)c1)C1CCNCC1        pIC50           8.40
 7     Cc1ccnc(Nc2cccc(-c3ccnc(NCCO)c3)n2)c1        pIC50           5.73
 8  Cc1ccnc(Nc2cccc(-c3ccnc(N4CCC(N)C4)c3)n2)c1 (stereo unspecified)        pIC50           6.35
 9     Cc1ccnc(Nc2cccc(-c3cccc(NCCN)c3)n2)c1        pIC50           7.04
10  Cc1cc(C(=O)Nc2cc(Nc3cnccn3)nc(-c3ccnc(N4CCNCC4)c3)c2)n(C)n1        pIC50           8.15
11     Cc1ccnc(Nc2cccc(-c3ccnc(NCCN)c3)n2)c1        pIC50           6.70
12  Cc1ccnc(Nc2cccc(-c3ccnc(N4CCC(N)CC4)c3)n2)c1        pIC50           6.94
13  Oc1ccc(CNc2cc(Nc3cnccn3)nc(-c3ccnc(N4CCNCC4)c3)c2)cc1        pIC50           8.10
14  Cc1ccnc(Nc2cccc(-c3ccnc(N4CCCNCC4)c3)n2)c1        pIC50           7.57
15  O=C(Nc1cc(Nc2cnccn2)nc(-c2ccnc(N3CCNCC3)c2)c1)c1ccccc1        pIC50           7.55
